Target: Rat Striatal Nicotinic Receptors ([^3H]MLA binding sites; α7) (Rattus norvegicus)
Construct: Whole brain, excluding cortex and cerebellum, was homogenized in 20 vol of ice-cold buffer; from tissue; host or cells: rat brain membranes (whole brain excluding cortex and cerebellum)
Sequence (Q05941 23-502): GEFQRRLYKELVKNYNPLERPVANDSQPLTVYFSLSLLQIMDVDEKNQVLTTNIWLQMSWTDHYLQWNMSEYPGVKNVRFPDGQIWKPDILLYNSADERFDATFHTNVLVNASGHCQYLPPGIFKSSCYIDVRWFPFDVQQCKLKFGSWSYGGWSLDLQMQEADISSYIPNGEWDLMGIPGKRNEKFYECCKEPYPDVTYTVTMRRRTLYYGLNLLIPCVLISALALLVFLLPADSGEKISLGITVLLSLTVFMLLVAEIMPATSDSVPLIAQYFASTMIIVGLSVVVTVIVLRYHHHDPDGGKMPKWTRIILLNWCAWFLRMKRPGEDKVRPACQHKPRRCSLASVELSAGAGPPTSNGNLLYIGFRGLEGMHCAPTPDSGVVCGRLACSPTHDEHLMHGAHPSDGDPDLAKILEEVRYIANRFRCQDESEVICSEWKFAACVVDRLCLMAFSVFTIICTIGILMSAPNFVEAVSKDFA
Assay: Inhibition of [^3H]MLA (methyllycaconitine) binding
Conditions: full concentration effect; [^3H]MLA; nonspecific S-nicotine; rat brain membranes; read-out: [^3H]MLA binding, Ki
pKi: −log10 of the molar value.
// reported pKi for each item listed
value-kind: pKi

INSERT INTO assay_data (smiles_string, target_entity, value_kind, reading_qualifier, experimental_result) VALUES
  ('CN1CCC[C@@H]1c1ccc[n+](CCCCc2ccc(CCCC[n+]3cccc([C@H]4CCCN4C)c3)cc2)c1', 'Rat Striatal Nicotinic Receptors ([^3H]MLA binding sites; α7) (Rattus norvegicus)', 'pKi', '<', 4.00),
  ('c1cc2c([n+](CCCCc3ccc(CCCC[n+]4cccc5c4CCCC5)cc3)c1)CCCC2', 'Rat Striatal Nicotinic Receptors ([^3H]MLA binding sites; α7) (Rattus norvegicus)', 'pKi', '=', 5.11),
  ('Cc1cc[n+](CCCCC#CC#CCCCC[n+]2ccc(C)c(C)c2)cc1C', 'Rat Striatal Nicotinic Receptors ([^3H]MLA binding sites; α7) (Rattus norvegicus)', 'pKi', '=', 4.62),
  ('C(C#CCCCC[n+]1ccc2c(c1)CCCC2)#CCCCC[n+]1ccc2c(c1)CCCC2', 'Rat Striatal Nicotinic Receptors ([^3H]MLA binding sites; α7) (Rattus norvegicus)', 'pKi', '=', 5.27),
  ('CN1CCC[C@H]1c1ccc[n+](CCCC/C=C\C=C/CCCC[n+]2cccc([C@@H]3CCCN3C)c2)c1', 'Rat Striatal Nicotinic Receptors ([^3H]MLA binding sites; α7) (Rattus norvegicus)', 'pKi', '<', 4.00),
  ('Cc1ccc[n+](CCCC/C=C\C=C/CCCC[n+]2cccc(C)c2)c1', 'Rat Striatal Nicotinic Receptors ([^3H]MLA binding sites; α7) (Rattus norvegicus)', 'pKi', '<', 4.00),
  ('Cc1ccc[n+](CCC#Cc2ccc(C#CCC[n+]3cccc(C)c3)cc2)c1', 'Rat Striatal Nicotinic Receptors ([^3H]MLA binding sites; α7) (Rattus norvegicus)', 'pKi', '<', 4.00),
  ('Cc1cc[n+](CCCCc2ccc(CCCC[n+]3ccc(C)cc3)cc2)cc1', 'Rat Striatal Nicotinic Receptors ([^3H]MLA binding sites; α7) (Rattus norvegicus)', 'pKi', '<', 4.00),
  ('Cc1cc[n+](CCC#Cc2ccc(C#CCC[n+]3ccc(C)cc3)cc2)cc1', 'Rat Striatal Nicotinic Receptors ([^3H]MLA binding sites; α7) (Rattus norvegicus)', 'pKi', '<', 4.00),
  ('C(#Cc1ccc(C#CCC[n+]2ccc3c(c2)CCCC3)cc1)CC[n+]1ccc2c(c1)CCCC2', 'Rat Striatal Nicotinic Receptors ([^3H]MLA binding sites; α7) (Rattus norvegicus)', 'pKi', '=', 6.06),
  ('c1cc(CCCC[n+]2ccc3c(c2)CCCC3)ccc1CCCC[n+]1ccc2c(c1)CCCC2', 'Rat Striatal Nicotinic Receptors ([^3H]MLA binding sites; α7) (Rattus norvegicus)', 'pKi', '=', 4.82),
  ('Cc1cc[n+](CCCCC#CC#CCCCC[n+]2ccc(C)cc2)cc1', 'Rat Striatal Nicotinic Receptors ([^3H]MLA binding sites; α7) (Rattus norvegicus)', 'pKi', '=', 5.29),
  ('Cc1cccc[n+]1CCCCc1ccc(CCCC[n+]2ccccc2C)cc1', 'Rat Striatal Nicotinic Receptors ([^3H]MLA binding sites; α7) (Rattus norvegicus)', 'pKi', '<', 4.00),
  ('Cc1ccc[n+](CCCCc2ccc(CCCC[n+]3cccc(C)c3)cc2)c1', 'Rat Striatal Nicotinic Receptors ([^3H]MLA binding sites; α7) (Rattus norvegicus)', 'pKi', '<', 4.00),
  ('C(/C=C\CCCC[n+]1ccc2c(c1)CCCC2)=C/CCCC[n+]1ccc2c(c1)CCCC2', 'Rat Striatal Nicotinic Receptors ([^3H]MLA binding sites; α7) (Rattus norvegicus)', 'pKi', '=', 5.52),
  ('Cc1cccc[n+]1CCCCC#CC#CCCCC[n+]1ccccc1C', 'Rat Striatal Nicotinic Receptors ([^3H]MLA binding sites; α7) (Rattus norvegicus)', 'pKi', '=', 4.62),
  ('C(/C=C\CCCC[n+]1cccc2c1CCCC2)=C/CCCC[n+]1cccc2c1CCCC2', 'Rat Striatal Nicotinic Receptors ([^3H]MLA binding sites; α7) (Rattus norvegicus)', 'pKi', '=', 5.12);

The measurements presented in this section are drawn from patent US8178678B2.
